- Assay Remarks: in vitro
- Measurement Setup: human, pooled human plasma
Peptide text beside a SMILES is read from it.
Endpoint Name: remaining at 0.5 h, 50 μM (%)

INSERT INTO assay_data (compound, reading_unit, reported_value) VALUES
  ('CSCC[C@H](NC(=O)CNC(=O)[C@H](CCSC)NC(=O)[C@H](CCSC)NC(=O)[C@H](CCCNC(=N)N)NC(=O)[C@@H](N)CCCNC(=N)N)C(=O)N[C@H](C(=O)N[C@@H](Cc1ccccc1)C(=O)N[C@@H](CCC(N)=O)C(=O)N[C@@H](CO)C(=O)N[C@@H](CC(C)C)C(=O)O)C(C)C [compound 60] (H-RRMMGMVFQSL-OH)', '%', 95),
  ('CSCC[C@H](NC(=O)CNC(=O)[C@H](CCSC)NC(=O)[C@H](CCSC)NC(=O)[C@H](CCCNC(=N)N)NC(=O)[C@@H](N)CCCNC(=N)N)C(=O)N[C@H](C(=O)N[C@@H](Cc1ccccc1)C(=O)O)C(C)C [compound 57] (H-RRMMGMVF-OH)', '%', 91.9),
  ('CSCC[C@H](NC(=O)CNC(=O)[C@H](CCSC)NC(=O)[C@H](CCSC)NC(=O)[C@H](CCCNC(=N)N)NC(=O)[C@@H](N)CCCNC(=N)N)C(=O)N[C@H](C(=O)N[C@@H](C)C(=O)N[C@@H](CCC(N)=O)C(=O)N[C@@H](CS)C(=O)N[C@@H](CC(C)C)C(=O)N[C@@H](CS)C(=O)NCC(=O)N[C@H](C)C(=O)O)C(C)C', '%', 97.9),
  ('CSCC[C@H](NC(=O)CNC(=O)[C@H](CCSC)NC(=O)[C@H](CCSC)NC(=O)[C@H](CCCNC(=N)N)NC(=O)[C@@H](N)CCCNC(=N)N)C(=O)O [compound 55] (H-RRMMGM-OH)', '%', 100);
